# IC50 per record follows
# subject of test: CHO-CFTR cell line (Homo sapiens, UniProt P13569)
# Construct: expressed in transfected cells; host or cells: CHO (CHO-CFTR cell line)
# Sequence (P13569 whole entry): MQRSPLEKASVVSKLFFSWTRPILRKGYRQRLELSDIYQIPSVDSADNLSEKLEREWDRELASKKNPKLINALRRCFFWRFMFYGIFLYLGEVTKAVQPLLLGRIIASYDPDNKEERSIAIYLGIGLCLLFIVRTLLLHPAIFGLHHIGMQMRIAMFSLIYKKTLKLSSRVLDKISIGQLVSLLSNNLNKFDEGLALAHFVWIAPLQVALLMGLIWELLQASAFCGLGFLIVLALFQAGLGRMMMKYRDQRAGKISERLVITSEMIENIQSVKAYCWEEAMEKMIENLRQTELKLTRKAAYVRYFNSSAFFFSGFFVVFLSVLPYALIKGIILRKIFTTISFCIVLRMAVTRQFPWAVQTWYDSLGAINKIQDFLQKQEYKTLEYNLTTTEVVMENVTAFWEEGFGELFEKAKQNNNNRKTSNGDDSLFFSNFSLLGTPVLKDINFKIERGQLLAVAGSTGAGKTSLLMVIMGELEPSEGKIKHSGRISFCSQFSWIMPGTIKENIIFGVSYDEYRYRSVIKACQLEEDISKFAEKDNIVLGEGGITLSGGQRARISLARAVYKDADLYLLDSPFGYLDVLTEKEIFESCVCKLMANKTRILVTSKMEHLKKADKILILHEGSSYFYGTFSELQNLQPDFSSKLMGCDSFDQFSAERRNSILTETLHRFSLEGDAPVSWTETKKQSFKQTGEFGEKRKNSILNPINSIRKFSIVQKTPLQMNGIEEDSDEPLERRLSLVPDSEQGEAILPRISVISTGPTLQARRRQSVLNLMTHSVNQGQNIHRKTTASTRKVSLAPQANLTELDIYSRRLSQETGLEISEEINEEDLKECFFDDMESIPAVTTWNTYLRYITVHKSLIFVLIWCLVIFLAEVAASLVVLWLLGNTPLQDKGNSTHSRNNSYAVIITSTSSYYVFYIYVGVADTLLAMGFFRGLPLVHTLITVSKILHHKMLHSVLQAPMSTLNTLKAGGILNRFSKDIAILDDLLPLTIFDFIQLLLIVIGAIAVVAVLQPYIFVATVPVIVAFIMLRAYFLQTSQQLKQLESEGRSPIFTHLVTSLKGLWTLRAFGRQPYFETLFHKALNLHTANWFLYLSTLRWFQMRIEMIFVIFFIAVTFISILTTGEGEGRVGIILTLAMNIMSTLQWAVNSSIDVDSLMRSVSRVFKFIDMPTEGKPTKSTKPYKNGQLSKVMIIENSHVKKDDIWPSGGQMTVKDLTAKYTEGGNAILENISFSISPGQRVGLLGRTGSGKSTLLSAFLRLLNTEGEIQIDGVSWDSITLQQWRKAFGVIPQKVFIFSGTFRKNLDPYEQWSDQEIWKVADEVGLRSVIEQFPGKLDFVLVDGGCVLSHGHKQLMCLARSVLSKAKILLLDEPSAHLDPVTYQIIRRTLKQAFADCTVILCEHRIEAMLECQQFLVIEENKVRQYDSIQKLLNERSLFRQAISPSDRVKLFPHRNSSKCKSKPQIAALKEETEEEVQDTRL
# assay text: CHO-CFTR assay (FLIPR assay, same conditions as the T84 assay)
# Type: cell-based
# condition: imidazole and triazole-containing compounds
Could you give me the number in µM? Just the number is fine.

Below, each entry is followed by its recorded IC50 result.
# input compound: "O=C(c1ncn(-c2cc(Cl)c(O)c(Cl)c2)n1)N1CCN(c2cccc(C(F)(F)F)c2)CC1" ; wanted: its IC50 14.3

Now this one: O=C(NCc1cccc(OC(F)(F)F)c1)c1cn(-c2cc(Br)c(O)c(Br)c2)cn1 [20i] 2.31

New cases:
# input compound: Oc1c(Cl)cc(-n2cnc(C(O)(c3cc(F)cc(Cl)c3)c3cc(F)cc(Cl)c3)n2)cc1Cl [57i] ; wanted: its IC50 3.88

Now this one: CC(C)(C)CCN(Cc1cccnc1)C(=O)c1ncn(-c2cc(Cl)c(O)c(Cl)c2)n1 [78i] 13.7

Now this one: CN(C)c1cccc(Oc2ccc(CNC(=O)c3ncn(-c4cc(Cl)c(O)c(Cl)c4)n3)cc2)c1 [64i] 4.81

Now this one: CC(C)(C)CCN(Cc1ccc(Cl)c(Cl)c1)C(=O)c1ncn(-c2cc(Cl)c(O)c(Cl)c2)n1 [107i] 26.9

Now this one: O=C(c1ncn(-c2cc(Cl)c(O)c(Cl)c2)n1)N(Cc1ccccc1)Cc1ccc(Oc2ccccc2)cc1 [80i] 13.3

Now this one: CC(C)(C)C(=O)C(Cc1cccc(OC(F)(F)F)c1)NC(=O)c1ncn(-c2cc(Cl)c(O)c(Cl)c2)n1 (centres unmarked) [133i] 21

Now this one: O=C(NCc1cc(F)cc(C(F)(F)F)c1)c1ncn(-c2cc(Cl)c(O)c(Cl)c2)n1 [24i] 15.2

Now this one: CON(Cc1cccc(OC(F)(F)F)c1)C(=O)c1ncn(-c2cc(Cl)c(O)c(Cl)c2)n1 [125i] 9.67

Now this one: O=C(c1ncn(-c2cc(Cl)c(O)c(Cl)c2)n1)N(Cc1cccnc1)Cc1cccc(OC(F)(F)F)c1 [110i] 7.8
